- Tested on: Plasmodium berghei
- experimental.protocol: Luciferase/luciferin-expressing antifolate-resistant parasites were used to infect a culture of HepG2 cells that were pre-incubated with compounds. Infected hepatocytes emit light due to the luciferase reaction. Assay results are presented as the percent inhibition of light emission compared to control. […]
- Assay type: functional
- condition.info: sporozoite, HEPG2TOX_HILL_SLOPE 1.06, HEPG2TOX_R_SQUARED 0.764, PBLUC_HILL_SLOPE 1.55, PBLUC_R_SQUARED 0.165, read-out: LUCIFERASE INFECTION ASSAY - IC50
endpoint.name: IC50

Task item: Find the recorded IC50 belonging to CN(CC(=O)Nc1ccc(-c2nc3ccccc3[nH]2)cc1)S(=O)(=O)c1ccc(Cl)s1 and report it.
Reply: > 10 µM

* * *

- System: Plasmodium berghei
- experimental.protocol: Luciferase/luciferin-expressing antifolate-resistant parasites were used to infect a culture of HepG2 cells that were pre-incubated with compounds. Infected hepatocytes emit light due to the luciferase reaction. Assay results are presented as the percent inhibition of light emission compared to control. […]
- Type: functional
- condition.info: sporozoite, HEPG2TOX_HILL_SLOPE 1.17, HEPG2TOX_R_SQUARED 0.429, PBLUC_HILL_SLOPE 8.23, PBLUC_R_SQUARED 0.327, read-out: LUCIFERASE INFECTION ASSAY - IC50
endpoint.name: IC50 (µM)
Please reply with the bare figure in µM and do not write the unit itself.

Task item: Return reported IC50; argument: CCOC(=O)C1=C(CSc2nc3ccccc3c(=O)n2-c2ccc(OC(F)F)cc2)NC(=O)NC1C (stereo unspecified)
Reply: 8.35

* * *

- Tested on: Plasmodium berghei
- experimental.protocol: Luciferase/luciferin-expressing antifolate-resistant parasites were used to infect a culture of HepG2 cells that were pre-incubated with compounds. Infected hepatocytes emit light due to the luciferase reaction. Assay results are presented as the percent inhibition of light emission compared to control. […]
- Assay type: functional
- condition.info: sporozoite, PBLUC_HILL_SLOPE 4.21, PBLUC_R_SQUARED 0.584, read-out: LUCIFERASE INFECTION ASSAY - IC50
endpoint.name: IC50 (µM)
The reply should be a number in µM, with the unit left off.

Task item: Consider the compound COc1cc(OC)nc(Nc2nc(C(N)Cc3ccccc3)cs2)n1 (stereo unspecified) and give its measured IC50.
Reply: 4.47

* * *

- System: Plasmodium berghei
- experimental.protocol: Luciferase/luciferin-expressing antifolate-resistant parasites were used to infect a culture of HepG2 cells that were pre-incubated with compounds. Infected hepatocytes emit light due to the luciferase reaction. Assay results are presented as the percent inhibition of light emission compared to control. […]
- Type: functional
- condition.info: sporozoite, read-out: LUCIFERASE INFECTION ASSAY - IC50
pIC50: −log10 of the molar value.
endpoint.name: pIC50

O=C(c1cc2cc(Cl)ccc2o1)N1CCN(Cc2ccc3c(c2)OCO3)CC1 ... < 5.08
O=c1[nH]nc(SCc2ccc([N+](=O)[O-])cc2)n1CC1CCCO1 (stereo not given) ... < 5.00
N#Cc1ccc(C=C(C(=O)NCc2ccccc2)C(=O)NCc2ccccc2)cc1 ... < 5.00
Cn1ccc2cc(-c3cn4c(-c5ccncc5)cnc4cn3)ccc21 ... < 5.00
CC(=O)c1cccc(-c2ccc3ncc(-c4ccoc4)n3n2)c1 ... < 5.00
O=C(O)COc1ccccc1/C=C1\NC(=S)NC1=O ... < 5.00

Task item: Form field: reported pIC50 of CC(C)(C)NC(=O)c1cc(-c2ccccc2Cl)nc2ccccc12
Reply: < 5.01

Task item: Also CCOc1ccc(OCC)c(NC(=O)/C=C/c2c(C)nn(-c3ccccc3)c2C)c1 ?
Reply: 5.04

Task item: And what about the compound CC(C)c1cccc(Nc2nnc(C(O)c3ccccc3Cl)s2)c1 (stereo not given) ?
Reply: < 5.00

Task item: Quick one: COc1ccc(-n2c(C)cc(/C=C(\C#N)C(=O)OCC(=O)Nc3ccc(Cl)c(C(F)(F)F)c3)c2C)cc1
Reply: < 5.00

* * *

- System: Plasmodium berghei
- experimental.protocol: Luciferase/luciferin-expressing antifolate-resistant parasites were used to infect a culture of HepG2 cells that were pre-incubated with compounds. Infected hepatocytes emit light due to the luciferase reaction. Assay results are presented as the percent inhibition of light emission compared to control. […]
- Format: functional
- condition.info: sporozoite, HEPG2TOX_HILL_SLOPE 1.6, HEPG2TOX_R_SQUARED 0.888, PBLUC_HILL_SLOPE 1.61, PBLUC_R_SQUARED 0.941, read-out: LUCIFERASE INFECTION ASSAY - IC50
endpoint.name: pIC50
Schema: pIC50 number; meaning minus log10 of the concentration expressed in molar units.

Task item: Which pIC50 is listed for COc1ccccc1NC(=O)/C=c1\s/c(=C\c2cnn(-c3ccccc3)c2)c(=O)n1C ?
Reply: 6.79

* * *

- Test system: Plasmodium berghei
- experimental.protocol: Luciferase/luciferin-expressing antifolate-resistant parasites were used to infect a culture of HepG2 cells that were pre-incubated with compounds. Infected hepatocytes emit light due to the luciferase reaction. Assay results are presented as the percent inhibition of light emission compared to control. […]
- Type: functional
- condition.info: sporozoite, FFLUC_HILL_SLOPE 13.7, FFLUC_R_SQUARED 0.693, PBLUC_HILL_SLOPE 9.99, PBLUC_R_SQUARED 0.314, read-out: LUCIFERASE INFECTION ASSAY - IC50
endpoint.name: pIC50
Expect pIC50 as a plain number equal to -log10 of the molar concentration.

Task item: # lookup: pIC50 of O=S(=O)(c1ccc2oc(Nc3ccc(Nc4ccccc4)cc3)nc2c1)N1CCOCC1
Reply: 5.03

* * *

- Test system: Plasmodium berghei
- experimental.protocol: Luciferase/luciferin-expressing antifolate-resistant parasites were used to infect a culture of HepG2 cells that were pre-incubated with compounds. Infected hepatocytes emit light due to the luciferase reaction. Assay results are presented as the percent inhibition of light emission compared to control. […]
- Format: functional
- condition.info: sporozoite, FFLUC_HILL_SLOPE 1.77, FFLUC_R_SQUARED 0.868, HEPG2TOX_HILL_SLOPE 1.9, HEPG2TOX_R_SQUARED 0.904, PBLUC_HILL_SLOPE 1.95, PBLUC_R_SQUARED 0.73, read-out: LUCIFERASE INFECTION ASSAY - IC50
endpoint.name: IC50 (nM)
The response must be a number in nM with no trailing unit.

Task item: What value of IC50 has been recorded for this entry: Cc1ccc(COC(=O)c2c(Cl)nc3sccn23)cc1
Reply: 129

* * *

- Tested on: Plasmodium berghei
- experimental.protocol: Luciferase/luciferin-expressing antifolate-resistant parasites were used to infect a culture of HepG2 cells that were pre-incubated with compounds. Infected hepatocytes emit light due to the luciferase reaction. Assay results are presented as the percent inhibition of light emission compared to control. […]
- Format: functional
- condition.info: sporozoite, HEPG2TOX_HILL_SLOPE 12.4, HEPG2TOX_R_SQUARED 0.631, PBLUC_HILL_SLOPE 22.9, PBLUC_R_SQUARED 0.104, read-out: LUCIFERASE INFECTION ASSAY - IC50
endpoint.name: IC50 (µM)
Write the number in µM without appending the unit.

Task item: Could you share what IC50 was measured for CCN(c1ccccc1)S(=O)(=O)c1ccc(C(=O)NCC(c2ccccc2OC)N2CCCC2)cc1 (stereo unspecified) , tested on Plasmodium berghei?
Reply: 3.36

* * *

- Test system: Plasmodium berghei
- experimental.protocol: Luciferase/luciferin-expressing antifolate-resistant parasites were used to infect a culture of HepG2 cells that were pre-incubated with compounds. Infected hepatocytes emit light due to the luciferase reaction. Assay results are presented as the percent inhibition of light emission compared to control. […]
- Format: functional
- condition.info: sporozoite, HEPG2TOX_HILL_SLOPE 3.54, HEPG2TOX_R_SQUARED 0.979, PBLUC_HILL_SLOPE 15.1, PBLUC_R_SQUARED 0.651, read-out: LUCIFERASE INFECTION ASSAY - IC50
endpoint.name: IC50
Kindly report the value followed by its unit.

Task item: Given c1ccc(-c2nnc(-c3ccccn3)nc2-c2ccccc2)cc1 , state its recorded IC50.
Reply: 3.65 µM

* * *

- System: Plasmodium berghei
- experimental.protocol: Luciferase/luciferin-expressing antifolate-resistant parasites were used to infect a culture of HepG2 cells that were pre-incubated with compounds. Infected hepatocytes emit light due to the luciferase reaction. Assay results are presented as the percent inhibition of light emission compared to control. […]
- Type: functional
- condition.info: sporozoite, HEPG2TOX_HILL_SLOPE 11.8, HEPG2TOX_R_SQUARED 0.86, PBLUC_HILL_SLOPE 22, PBLUC_R_SQUARED 0.334, read-out: LUCIFERASE INFECTION ASSAY - IC50
endpoint.name: pIC50
Note on pIC50: it is the negative log10 of concentration, concentration in mol/L.

Task item: Would you mind telling me what pIC50 value was observed for Cc1ccc(NC(=O)Cn2nnc(-c3ccccc3)n2)cc1S(=O)(=O)N1CCCCCC1 ?
Reply: 5.04
